System: MDA-N
METHOD_NOTES: NCI tumour cell line growth inhibition, 48 h
ATTRIBUTE_MEASURED: TGI (µM)

> print(dat)
                                   molecule  readout.units  value.operator  obs.value
1  CC(NNC(=O)c1ccncc1)c1ccc(F)cc1 (stereo not given)             µM               >        100
2  C=CCOc1ccc(/C(N=Nc2ccc([N+](=O)[O-])cc2)=N/NC(=O)c2ccccc2)cc1OC             µM               >        100
3                CCNCCNc1c2ccccc2nc2ccccc12             µM               =       2.81
4  O=C(/C=C/c1ccccc1)CCN1CCN(CCC(=O)/C=C/c2ccccc2)CC1             µM               =       6.79
5  O=C(/C=C(\O)c1ccccc1)C(=O)NNc1ccc([N+](=O)[O-])cc1[N+](=O)[O-]             µM               =       78.1

---

Tested on: MOLT-4 leukemia
METHOD_NOTES: NCI tumour cell line growth inhibition, 48 h
Entries and their GI50
ATTRIBUTE_MEASURED: GI50

MOLECULE	SUBJECT_OF_TEST	OBS_VALUE
COc1ccc(-c2csc(N(C(=O)N3CCN(c4cc5c(cc4F)c(=O)c(C(=O)O)cn5C4CC4)CC3)c3ccccc3)n2)cc1	MOLT-4 leukemia	3.78 µM
NCCOCCOCCNc1nc(Cc2ccccc2)nc(NCCCN2CCCC2=O)n1	MOLT-4 leukemia	> 100 µM
Cc1cc(N(CCCl)CCCl)ccc1C=Nc1ccc(-c2csc(Cc3ccccc3)n2)cc1	MOLT-4 leukemia	2.22 µM
CC[C@@H](C(=O)O)C1CC[C@H](C)C([C@@H](C)[C@H](O)[C@H](C)C(=O)[C@H](CC)C2O[C@]3(C=C[C@@H](O)[C@]4(CC[C@@](C)(C5CC[C@](O)(CC)[C@H](C)O5)O4)O3)[C@H](C)C[C@@H]2C)O1 (stereo partly drawn)	MOLT-4 leukemia	1.47 µM
COc1ccc(OC)c(/C=C2\SC(=S)NC2=O)c1	MOLT-4 leukemia	44.8 µM
COc1ccc(-c2nn3c(-c4cc(F)c(Cl)cc4Cl)nnc3s2)cc1	MOLT-4 leukemia	26.5 µM
CC(CCC(=O)O)[C@H]1CCC2[C@@H]3CC[C@@H]4CC(O)CC[C@]4(C)C3CC[C@@]21C (stereo partly drawn)	MOLT-4 leukemia	22 µM
Cn1cccc1-c1cc(-c2cccs2)nc(N)c1C#N	MOLT-4 leukemia	> 100 µM

---

System: MCF7 breast
METHOD_NOTES: NCI tumour cell line growth inhibition, 48 h; in the data active = GI50 below about 0.43 µM; inactive = the rest
Outcomes: active, inactive

> print(dat)
                                    compound  class.name
 1  NCCOCCOCCNc1nc(Cc2ccccc2)nc(NCCCN2CCCC2=O)n1    inactive
 2  COC(=O)[C@@]1(C)CC[C@]2(C)CC[C@]3(C)C4=CC=C5C(=CC(=O)C(O)=C5C)[C@]4(C)[C@@H](O)C[C@@]3(C)[C@@H]2C1    inactive
 3  Cc1ccc(-c2cn3ccnc3c(-c3ccc(Cl)cc3)n2)cc1      active
 4  COc1cccc(-n2ncc3c(N/N=C/c4ccc(C(=O)NCCN(C)C)cc4)ncnc32)c1    inactive
 5  COc1ccc(/C=C2\CCCC3=C2N=C2SC(C)=NN2C3c2ccc(OC)c(OC)c2)cc1OC (configuration not stated)    inactive
 6          COc1ccc(/C(C#N)=C/c2ccccc2OC)cc1    inactive
 7  COc1cc(C2CC(c3ccc4c(c3)OCO4)=NN2C=O)cc(OC)c1OC (configuration not stated)    inactive
 8               Nc1ccccc1C#C/C=C\C#Cc1cccs1    inactive
 9            O=c1cc(-c2ccccc2)[nH]c2ccccc12      active
10  Cn1cc(-c2ccc3occ(-c4cccc(-c5ccncc5)c4)c3n2)cn1      active
11  CCOC(=O)c1cc(NS(=O)(=O)c2ccccc2)cc(C(=O)OCC)c1    inactive
12  O=C(NCCO)Nc1ccc(-c2nc(N3CCOCC3)c3cccn3n2)cc1      active
13  COc1ccc(-c2csc(N(C(=O)N3CCN(c4cc5c(cc4F)c(=O)c(C(=O)O)cn5C4CC4)CC3)c3ccccc3)n2)cc1    inactive
14  O=C(CCCCCCC(=O)Nc1ccc(N(CCCl)CCCl)cc1)NO    inactive
15  O=C1/C(=C\c2c[nH]c3ccccc23)c2ccccc2N1c1c(Cl)cccc1Cl    inactive
16  C=CCOc1cccc(/C=C2\SC(=Nc3ccc(O)cc3)NC2=O)c1      active
17       COc1ccc2c(c1)cn1c3ccc(O)cc3nc(N)c21    inactive

---

Tested on: SN12C renal
METHOD_NOTES: NCI tumour cell line growth inhibition, 48 h
Entries and their TGI
ATTRIBUTE_MEASURED: TGI

> print(dat)
                                    compound  attribute.measured  obs.value
 1  CC(=O)CCCCC(=O)Nc1ccc(CC(NC(=O)OC(C)(C)C)C(=O)NCC(=O)OCc2ccccc2)cc1 (stereo not given)                 TGI    64.4 µM
 2           O=S(=O)(O)c1ccc(O)c2ncc(Cl)cc12                 TGI   > 100 µM
 3          Cc1nc(N)nc(N)c1-c1ccc(Cl)c(Cl)c1                 TGI   > 100 µM
 4  CC1=C(C(=O)O)N2C(=O)[C@@H](NC(=O)C(c3ccc(O)cc3)N3CSC(=S)N(C(C)C)C3)C2SC1 (stereo not given in full)                 TGI   > 100 µM
 5  S=c1sc2c(s1)SCCCCSCCCCSc1sc(=S)sc1SCCCCSCCCCS2                 TGI   > 100 µM
 6  O=c1c2nn3c(=O)n(-c4ccccc4)c(=O)c3nn2c(=O)n1-c1ccccc1                 TGI   > 100 µM
 7            Cc1ccc(N=Cc2ccc3c(c2)OCO3)cc1C                 TGI   > 100 µM
 8           Cn1c(=S)[nH]c2sc3c(c2c1=O)CCSC3                 TGI   > 100 µM
 9  COc1cccc(-c2c(C#N)c(N)nc3c2CCS(=O)(=O)c2ccc(C)cc2-3)c1                 TGI   > 100 µM
10  COc1cc(/C=C/C(=O)c2ccc(NS(=O)(=O)c3cc([N+](=O)[O-])ccc3C)cc2)cc(OC)c1OC                 TGI    4.52 µM

---

Tested on: DU-145 prostate
METHOD_NOTES: NCI tumour cell line growth inhibition, 48 h
Entries and their TGI
ATTRIBUTE_MEASURED: TGI (µM)

> print(dat)
                                   compound  attribute.measured  value.operator  obs.value
1  CC(C)c1cc(-c2n[nH]c(=O)n2-c2ccc3c(ccn3C)c2)c(O)cc1O                 TGI               =         23
2  O=C1c2ccccc2S(=O)(=O)c2c1cccc2[N+](=O)[O-]                 TGI               >         10
3  COC(=O)[C@@]1(C)CC[C@]2(C)CC[C@]3(C)C4=CC=C5C(=CC(=O)C(O)=C5C)[C@]4(C)[C@@H](O)C[C@@]3(C)[C@@H]2C1                 TGI               =       23.3
4           Cn1c(=S)[nH]c2sc3c(c2c1=O)CCSC3                 TGI               =       57.1
5  CC(=O)CCCCC(=O)Nc1ccc(CC(NC(=O)OC(C)(C)C)C(=O)NCC(=O)OCc2ccccc2)cc1 (centres undefined)                 TGI               =       88.5
6  NCCOCCOCCNc1nc(Cc2ccccc2)nc(NCCCN2CCCC2=O)n1                 TGI               >        100
7  COc1cc(C2CC(c3ccc4c(c3)OCO4)=NN2C=O)cc(OC)c1OC (centres undefined)                 TGI               >       26.1
8  COc1ccc2nc(N/N=C/C(C)=N/Nc3cc(C)c4cc(OC)ccc4n3)cc(C)c2c1                 TGI               =       34.8
9  N=c1oc2c(Cl)cc(Cl)cc2cc1C(=O)Nc1cccc2ccccc12                 TGI               >        100
